# Method summary: chemical genetic growth profiling, strain panel (AID 1159580);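 further: tested at 20 µM; growth read once vehicle control cultures reached saturation at 30 °C; 1 = growth at the plate median or of vehicle wells; lower values mean less growth of the strain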
# Reported conditions: S. cerevisiae deletion strains, growth OD, locus YER155C, strain BEM2, active compounds read low
Out of some 5,500 compounds screened, about 2,000 (36%) were called active. Roughly 18% stayed inconclusive and do not appear here. The list shows a part of the results.
Value type: normalized growth
Returns: the value as a bare number; no unit string appended.

Prompt: // returns reported normalized growth for input N#C/C(=C\c1ccc(O)cc1)C(=O)O
Completion: 0.987

Prompt: Try this compound too: O=[N+]([O-])/N=C1/NCCN1Cc1ccc(Cl)cc1
Completion: 1

Prompt: Another compound to look at: CCCc1nc(C(C)(C)O)c(C(=O)OCc2oc(=O)oc2C)n1Cc1ccc(-c2ccccc2-c2nn[nH]n2)cc1
Completion: 1.02

Prompt: Let us now turn to CCOc1nc2cccc(C(=O)OC(C)OC(=O)OC3CCCCC3)c2n1Cc1ccc(-c2ccccc2-c2nn[nH]n2)cc1 (stereo not given)
Completion: 1.01

Prompt: Record: CCCC(=O)Nc1ncnc2c1ncn2C1O[C@@H]2COP(=O)(O)O[C@H]2[C@H]1OC(=O)CCC (stereo not given in full)
Completion: 0.996

====

# Method summary: chemical genetic growth profiling, strain panel (AID 1159580);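 further: tested at 20 µM; growth read once vehicle control cultures reached saturation at 30 °C; 1 = growth at the plate median or of vehicle wells; lower values mean less growth of the strain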
# Reported conditions: S. cerevisiae deletion strains, growth OD, locus YDR226W, strain ADK1
The campaign covered roughly 5,500 compounds. About 2,000 (36%) were called active. Not shown: some 18% with an inconclusive outcome. Cut-off read from the data, not from the text of the source: active = normalized growth mostly below about 0.91 (no sharp cut-off); inconclusive = no clear call, values can overlap the other calls; inactive = mostly above about 0.92. Some of the results follow.
Entry note: the call must match one of YES = active, NO = inactive

Prompt: Answer briefly: the call reported for N#C/C(=N/Nc1ccc(Cl)cc1)C(N)=S in this assay.
Completion: YES

Prompt: Try the molecule O=C(NNc1c(Cl)cccc1Cl)c1ccc([N+](=O)[O-])o1
Completion: NO

Prompt: Here is the next molecule: CSC(SC)=C(C#N)C(=O)c1ccccc1Cl
Completion: NO

Prompt: Also O=S(=O)(Nc1cc(-c2cccs2)nn1-c1ccc(I)cc1)c1cccc(F)c1 , if possible.
Completion: NO

Prompt: Also O=C(SCc1c(Cl)cccc1Cl)c1ccc([N+](=O)[O-])o1 ?
Completion: NO

Prompt: Item: CCOC(=O)C(NC(C)=O)(Nc1ccc(F)c(Cl)c1)C(F)(F)F (stereo unspecified)
Completion: NO

Prompt: Moving on to the next molecule: C(=NC(N=Cc1ccccc1)c1ccccc1)c1ccccc1 (stereo unspecified)
Completion: NO

Prompt: What about CC(/C=C/c1ccccc1)=N/OC(=O)c1ccccc1Cl ?
Completion: NO

Prompt: Next molecule up: O=C(N/N=C\c1cc(Cl)cc(Cl)c1O)c1ccccc1Oc1ccccc1
Completion: NO

Prompt: Item: FC(F)(F)c1ccc(C2Sc3ccccc3N=C3c4ccccc4CC32)cc1 (stereo unspecified)
Completion: NO

Prompt: Now consider COc1cccc(C(=O)C(C#N)=C(SC)SC)c1 and answer again.
Completion: YES

====

# Method summary: chemical genetic growth profiling, strain panel (AID 1159580);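 further: tested at 20 µM; growth read once vehicle control cultures reached saturation at 30 °C; 1 = growth at the plate median or of vehicle wells; lower values mean less growth of the strain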
# Reported conditions: S. cerevisiae deletion strains, growth OD, locus YCL069W, strain vba3, active compounds read low
Out of some 5,500 compounds screened, about 2,000 (36%) were called active. About 18% were inconclusive and are not listed. The list shows a part of the results.
Value type: normalized growth
I only need the number, thanks.

Prompt: Fill in the blank: the reported normalized growth of COc1c2occc2cc2ccc(=O)oc12 is ____.
Completion: 0.96

Prompt: Please do the same for COc1c2c(cc3occ(-c4ccc5c(c4)OCO5)c(=O)c13)OC(C)(C)C=C2 as well.
Completion: 1

Prompt: What would you report for CCCCC(=O)O[C@H]1CCC2C3CCc4cc(O)ccc4C3CC[C@@]21C (stereo partly specified) ?
Completion: 1.01

Prompt: Same question for Nc1ncnc2c1ncn2[C@@H]1O[C@H](CO)[C@@H](O)[C@@H]1O please.
Completion: 1.02

Prompt: Next entry: COc1ccc2c(=O)c(-c3cc4c(cc3OC)OCO4)coc2c1
Completion: 1

Prompt: Now the same for COc1cc(OC)c2c(=O)c(-c3ccc4c(c3)OCO4)coc2c1
Completion: 0.983
